target: Human immunodeficiency virus type 1 protease (Human immunodeficiency virus 1, UniProt Q72874)
# pIC50 per record follows
Quick note: pIC50 means taking -log10 of the concentration in moles per liter.

Please give the measured pIC50 for this compound: O=c1oc2ccccc2c(O)c1SCCOc1ccccc1
4.62

Please give the measured pIC50 for this compound: O=c1oc2ccccc2c(O)c1CCCN(Cc1ccccc1)c1ccccc1
4.89

Please give the measured pIC50 for this compound: O=c1oc2ccccc2c(O)c1CCCCc1ccccc1
3.96

Please give the measured pIC50 for this compound: O=c1oc2ccccc2c(O)c1CCCSc1ccccc1
4.59

Please give the measured pIC50 for this compound: Nc1cccc(OCCCc2c(O)oc3ccccc3c2=O)c1
5.19

Please give the measured pIC50 for this compound: O=C(O)c1cccc(OCCCc2c(O)oc3ccccc3c2=O)c1
5.15
